These entries and their values trace back to patent US20060121042A1.

Target: T1, r murine EphA4 (mouse, UniProt Q03137)
T1 construct: recombinant Fc fusion (R&D Systems); also called rmuEphA4-Fc; mEphA4
T1 sequence (Q03137 20-547 limits assumed): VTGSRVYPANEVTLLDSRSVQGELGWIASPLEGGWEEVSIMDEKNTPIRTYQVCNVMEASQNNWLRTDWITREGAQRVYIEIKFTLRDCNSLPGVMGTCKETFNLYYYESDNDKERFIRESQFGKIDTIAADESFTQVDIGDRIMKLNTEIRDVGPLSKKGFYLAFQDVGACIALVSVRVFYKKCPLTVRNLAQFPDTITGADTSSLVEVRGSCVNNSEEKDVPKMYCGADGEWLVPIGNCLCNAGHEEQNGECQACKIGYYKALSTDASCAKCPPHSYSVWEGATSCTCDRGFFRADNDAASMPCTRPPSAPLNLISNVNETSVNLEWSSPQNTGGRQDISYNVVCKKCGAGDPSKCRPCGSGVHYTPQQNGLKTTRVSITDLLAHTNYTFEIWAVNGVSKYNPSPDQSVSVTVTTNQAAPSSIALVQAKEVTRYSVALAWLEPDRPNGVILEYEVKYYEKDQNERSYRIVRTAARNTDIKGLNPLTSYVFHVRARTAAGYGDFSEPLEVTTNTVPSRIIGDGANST
Assay: activity ELISA, IgG on coated antigen

binder: 3C6 IgG1 (affinity optimized combinatorial variant of mAb GEA44 in human IgG1 format) (antibody, V domains shown) VH: QVQLLQSGAEVKKPGASVKVPCKASGYTFTSRAMSWVRQAPGQGLEWMGWINTNTGNPTYAQGFTGRFVFSLDTSVSTAYLQISSLKAEDTAVYYCARVRLTVYGDGMDVWGQGTLVTVSS VL: EIVLTQSPATLSVSPGERATLSCRASQSVSSNPPWYQQKPGQAPRLLIYGASTRATGIPDRFSASGSGTDFTLTISRVEPEDFAVYYCQQYGSSWTFGQGTKVEIK
binding result: binds
--
binder: 6B7 IgG1 (affinity optimized combinatorial variant of mAb GEA44 in human IgG1 format) (antibody, V domains shown) VH: QVQLLQSGAEVKKPGASVKVPCKASGYTFTSRAMSWVRQAPGQGLEWMGWINTNTGNPTYAQGFTGRFVFSLDTSVSTAYLQISSLKAEDTAVYYCARVRFTVYGDGMDVWGQGTLVTVSS VL: EIVLTQSPATLSVSPGERATLSCRASQSVSSNPAWYQQKPGQAPRLLIYGASTRATGIPDRFSASGSGTDFTLTISRVEPEDFAVYYCQQYGPSWTFGQGTKVEIK
binding result: binds
--
binder: 1A4 IgG1 (affinity optimized combinatorial variant of mAb GEA44 in human IgG1 format) (antibody, V domains shown) VH: QVQLLQSGAEVKKPGASVKVPCKASGYTFTSRAMSWVRQAPGQGLEWMGWINTNTGNPTYAQGSTGRFVFSLDTSVSTAYLQISSLKAEDTAVYYCARVRFTVYGDGMDVWGQGTLVTVSS VL: EIVLTQSPATLSVSPGERATLSCRASQSVSSNPAWYQQKPGQAPRLLIYGASTRATGIPDRFSASGSGTDFTLTISRVEPEDFAVYYCQQYGPSWTFGQGTKVEIK
binding result: binds
